Taken from patent US8889874B2.

Tested on: Non-small cell lung cancer cell lines
test-summary: NCI anticancer screen, SRB assay, panel summary
Type: cell-based, human
experimental-context: Homo sapiens; Non-small cell lung panel; log of concentration leading to 50% net cell death; read-out: mean graph midpoint (MG_MID) of Log10 LC50 (converted)
LC50 under 40 µM gets true (1), anything at or over 40 µM gets false (0).

Quick check: does COc1cc(/C=C/C(=O)c2cccc(-n3cc(-c4ccccc4)[nH]c3=O)c2)cc(OC)c1OC [5a] have LC50 under 40 µM?
true (1)

Quick check: does COc1ccc(-c2cn(-c3cccc(C(=O)/C=C/c4ccc(O)c(OC)c4)c3)c(=O)[nH]2)cc1 [3b] have LC50 under 40 µM?
false (0)

Quick check: does O=C(/C=C/c1cccc(O)c1)c1cccc(-n2cc(-c3ccc4ccccc4c3)[nH]c2=O)c1 [12b] have LC50 under 40 µM?
true (1)

Quick check: does COc1cc(/C=C/C(=O)c2cccc(-n3cc(-c4ccccc4)[nH]c3=O)c2)ccc1O [3a] have LC50 under 40 µM?
false (0)

Quick check: does O=C(/C=C/c1cccc(O)c1)c1cccc(-n2cc(-c3ccc(Cl)cc3)[nH]c2=O)c1 [4f] have LC50 under 40 µM?
false (0)

Quick check: does COc1cc(/C=C/C(=O)c2cccc(-n3cc(-c4ccc(Cl)cc4)[nH]c3=O)c2)ccc1O [3f] have LC50 under 40 µM?
false (0)

* * *

System: Melanoma cancer cell lines
test-summary: NCI anticancer screen, SRB assay, panel summary
Assay type: cell-based, human
experimental-context: Homo sapiens; nine melanoma cancer cell lines; exposure at least 48 hrs; read-out: GI50, range over the panel
Would you mind telling me the reported GI50 of each entry?

Give recorded GI50. O=C(/C=C/c1cccc(O)c1)c1cccc(-n2cc(-c3ccccc3)[nH]c2=O)c1 [4a]
1.85 to 8.26 µM

Give recorded GI50. O=C(/C=C/c1cccc(O)c1)c1cccc(-n2cc(-c3ccc4ccccc4c3)[nH]c2=O)c1 [12b]
0.85 to 4.13 µM

Give recorded GI50. COc1cc(/C=C/C(=O)c2cccc(-n3cc(-c4ccccc4)[nH]c3=O)c2)cc(OC)c1OC [5a]
0.48 to 2.06 µM

Give recorded GI50. O=C(/C=C/c1cccc(O)c1)c1cccc(-n2cc(-c3ccc(Cl)cc3)[nH]c2=O)c1 [4f]
1.53 to 4.07 µM

Give recorded GI50. COc1cc(/C=C/C(=O)c2cccc(-n3cc(-c4ccccc4)[nH]c3=O)c2)ccc1O [3a]
1.59 to 6.81 µM

Give recorded GI50. COc1cc(/C=C/C(=O)c2cccc(-n3cc(-c4cc(OC)c(OC)c(OC)c4)[nH]c3=O)c2)cc(OC)c1OC [5d]
1.23 to 3.02 µM

Give recorded GI50. COc1cc(/C=C/C(=O)c2cccc(-n3cc(-c4ccc(Cl)cc4)[nH]c3=O)c2)ccc1O [3f]
1.63 to 8.69 µM

Give recorded GI50. COc1ccc(-c2cn(-c3cccc(C(=O)/C=C/c4ccc(O)c(OC)c4)c3)c(=O)[nH]2)cc1 [3b]
2.03 to 13.3 µM

* * *

System: SF-295 (CNS)
test-summary: NCI anticancer screen, SRB assay, 48 h
Assay type: cell-based, human
experimental-context: Homo sapiens, read-out: pGI50 (-log of molar concentration causing 50% inhibition of net cell growth) (converted)
property: GI50 (µM)
# number only, unit µM dropped from output

Give recorded GI50. COc1cc(/C=C/C(=O)c2cccc(-n3cc(-c4cc(OC)c(OC)c(OC)c4)[nH]c3=O)c2)cc(OC)c1OC
5.01

Give recorded GI50. COc1ccc(-c2cn(-c3cccc(C(=O)/C=C/c4ccc(O)c(OC)c4)c3)c(=O)[nH]2)cc1
13.8

Give recorded GI50. O=C(/C=C/c1cccc(O)c1)c1cccc(-n2cc(-c3ccc4ccccc4c3)[nH]c2=O)c1 [12b]
1.45

Give recorded GI50. O=C(/C=C/c1cccc(O)c1)c1cccc(-n2cc(-c3ccccc3)[nH]c2=O)c1
18.2
